Assay: Solubility of Ipriflavon in aqueous cyclodextrin solutions (4 days agitation, 25° C., photometric)
Assay type: physicochemical
Details: aqueous β-cd 40 mg/ml, Solubility of Ipriflavon
Protocol: One of the evidence of the formation of inclusion complex between Ipriflavon and cyclodextrin is that the cyclodextrin increases the solubility of Ipriflavon in aqueous solutions. […] After closing, the tubes were agitated for 4 days at 25° C. at 325 rpm, thereafter the samples were filtered on a G4 glass-filter and the filtrates were photometrically analysed in 50% aqueous ethanol solution.

{"columns": ["molecule", "solubility at 96 h [µg/mL]"],
 "data": [
  ["CC(C)Oc1ccc2c(=O)c(-c3ccccc3)coc2c1 [Ipriflavon, 7-isopropoxy-isoflavon]", 6.2]
]}

---

test: Solubility of Ipriflavon in aqueous cyclodextrin solutions (4 days agitation, 25° C., photometric); format: physicochemical; conditions: aqueous γ-cd 15 mg/ml, Solubility of Ipriflavon

{"columns": ["smilesRepr", "solubility at 96 h / µg/mL"],
 "data": [
  ["CC(C)Oc1ccc2c(=O)c(-c3ccccc3)coc2c1", 2.16]
]}

---

assay: Solubility of Ipriflavon in aqueous cyclodextrin solutions (4 days agitation, 25° C., photometric); format: physicochemical; conditions: aqueous α-cd 70 mg/ml, Solubility of Ipriflavon

{"columns": ["smilesRepr", "solubility at 96 h / µg/mL"],
 "data": [
  ["CC(C)Oc1ccc2c(=O)c(-c3ccccc3)coc2c1", 14.8]
]}

---

assay: Solubility of Ipriflavon in aqueous cyclodextrin solutions (4 days agitation, 25° C., photometric); type: physicochemical; details: aqueous β-cd 15 mg/ml, Solubility of Ipriflavon

{"columns": ["smilesRepr", "solubility at 96 h"],
 "data": [
  ["CC(C)Oc1ccc2c(=O)c(-c3ccccc3)coc2c1", "15.8 µg/mL"]
]}

---

assay: Solubility of Ipriflavon in aqueous cyclodextrin solutions (4 days agitation, 25° C., photometric); format: physicochemical; conditions: aqueous β-cd 13 mg/ml, Solubility of Ipriflavon

{"columns": ["smilesRepr", "unitLabel", "solubility at 96 h"],
 "data": [
  ["CC(C)Oc1ccc2c(=O)c(-c3ccccc3)coc2c1", "µg/mL", 15.5]
]}

---

assay: Solubility of Ipriflavon in aqueous cyclodextrin solutions (4 days agitation, 25° C., photometric); assay type: physicochemical; settings: aqueous β-cd 5 mg/ml, Solubility of Ipriflavon

{"columns": ["compound", "solubility at 96 h / µg/mL"],
 "data": [
  ["CC(C)Oc1ccc2c(=O)c(-c3ccccc3)coc2c1 [Ipriflavon, 7-isopropoxy-isoflavon]", 11.4]
]}

---

experiment: Solubility of Ipriflavon in aqueous cyclodextrin solutions (4 days agitation, 25° C., photometric); format: physicochemical; settings: aqueous α-cd 90 mg/ml, Solubility of Ipriflavon

{"columns": ["smilesRepr", "solubility at 96 h, µg/mL"],
 "data": [
  ["CC(C)Oc1ccc2c(=O)c(-c3ccccc3)coc2c1", 18.2]
]}

---

assay: Solubility of Ipriflavon in aqueous cyclodextrin solutions (4 days agitation, 25° C., photometric); format: physicochemical; conditions: aqueous β-cd 20 mg/ml, Solubility of Ipriflavon

{"columns": ["compound", "solubility at 96 h (µg/mL)"],
 "data": [
  ["CC(C)Oc1ccc2c(=O)c(-c3ccccc3)coc2c1 [Ipriflavon, 7-isopropoxy-isoflavon]", 13.5]
]}

---

assay: Solubility of Ipriflavon in aqueous cyclodextrin solutions (4 days agitation, 25° C., photometric); assay type: physicochemical; settings: 12% aqueous alpha-cyclodextrin, solubility of Ipriflavon in α-cyclodextrin solution
assayMetric: solubility at 96 h

{"columns": ["smilesRepr", "testValue"],
 "data": [
  ["CC(C)Oc1ccc2c(=O)c(-c3ccccc3)coc2c1", "20 to 22 µg/mL"]
]}
